Source: paper PMC10397247

Collected interaction score values appear next to each entry.
# tgt: T1, O2
# T1 chain: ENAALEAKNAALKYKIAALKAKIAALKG
# test: two-hybrid library CC0;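 note: natural log of median RNA to DNA barcode read ratio; higher means stronger binding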
# experimental-context: mean of both orientations
measured-metric: interaction score

binder | observed-measurement
EIAALEAENAALEYKIAALKAENAALEG [O15] | -2.7
KIAALKAKNAALKYEIAALEAKNAALKG [O16] | -2.67
KIAALKAEIAALEYENAALEAENAALEG [O11] | -2.53
EIAALEAKIAALKYKNAALKAKNAALKG [O12] | -2.79
ENAALEAKNAALKYKIAALKAKIAALKG [O2] | -2.68
KNAALKAKIAALKYKNAALKAEIAALEG [O13] | -2.82
KNAALKAENAALEYEIAALEAEIAALEG [O1] | 1.37
KNAALKAENAALEYKIAALKAKIAALKG [O10] | -1.28
ENAALEAEIAALEYENAALEAKIAALKG [O14] | -2.38
